B1: library; numbered along this chain (parent)
chain: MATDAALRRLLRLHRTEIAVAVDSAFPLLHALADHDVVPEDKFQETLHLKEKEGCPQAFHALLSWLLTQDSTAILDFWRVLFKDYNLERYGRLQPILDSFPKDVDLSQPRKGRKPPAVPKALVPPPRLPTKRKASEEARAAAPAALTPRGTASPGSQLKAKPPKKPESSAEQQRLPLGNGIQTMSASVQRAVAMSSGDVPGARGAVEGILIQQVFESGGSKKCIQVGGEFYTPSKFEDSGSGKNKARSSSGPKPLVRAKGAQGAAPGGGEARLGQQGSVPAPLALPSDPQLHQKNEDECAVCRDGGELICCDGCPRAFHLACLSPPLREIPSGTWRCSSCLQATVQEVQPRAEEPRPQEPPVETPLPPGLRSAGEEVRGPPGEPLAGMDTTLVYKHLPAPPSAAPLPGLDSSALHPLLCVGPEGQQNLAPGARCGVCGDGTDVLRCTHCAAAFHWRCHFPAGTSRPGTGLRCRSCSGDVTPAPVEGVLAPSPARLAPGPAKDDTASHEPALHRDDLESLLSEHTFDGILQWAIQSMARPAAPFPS

- Variants of: B1
- assay.details: AIRE transcriptional activation functional score (insulin promoter-GFP; nonsense median 0, synonymous median 1) (normalised score); higher = higher AIRE activity (more reporter activation)
- condition.details: with insulin promoter-GFP reporter in HEK293
Think of 1 as a floor: if AIRE transcriptional activation functional score stands on it or above, it is condition met; beneath it, condition not met.

Ask: Evaluate `A432C` : AIRE transcriptional activation functional score at minimum 1?
Reply: condition met

Ask: Evaluate `A343P` : AIRE transcriptional activation functional score at minimum 1?
Reply: condition not met

Ask: Evaluate `K245S` : AIRE transcriptional activation functional score at minimum 1?
Reply: condition not met

Ask: Evaluate `H396D` : AIRE transcriptional activation functional score at minimum 1?
Reply: condition not met

Ask: Evaluate `E171Y` : AIRE transcriptional activation functional score at minimum 1?
Reply: condition met

Ask: Evaluate `T68S` : AIRE transcriptional activation functional score at minimum 1?
Reply: condition not met

Ask: Evaluate `K50Y` : AIRE transcriptional activation functional score at minimum 1?
Reply: condition not met

Ask: Evaluate `L519S` : AIRE transcriptional activation functional score at minimum 1?
Reply: condition not met

Further cases:
Ask: Evaluate `W455G` : AIRE transcriptional activation functional score at minimum 1?
Reply: condition not met

Ask: Evaluate `D526L` : AIRE transcriptional activation functional score at minimum 1?
Reply: condition not met

Ask: Evaluate `G382H` : AIRE transcriptional activation functional score at minimum 1?
Reply: condition met

Ask: Evaluate `A343I` : AIRE transcriptional activation functional score at minimum 1?
Reply: condition met

Ask: Evaluate `F230G` : AIRE transcriptional activation functional score at minimum 1?
Reply: condition not met

Ask: Evaluate `L406H` : AIRE transcriptional activation functional score at minimum 1?
Reply: condition met

Ask: Evaluate `G178S` : AIRE transcriptional activation functional score at minimum 1?
Reply: condition met

Ask: Evaluate `V487M` : AIRE transcriptional activation functional score at minimum 1?
Reply: condition not met

Ask: Evaluate `S239W` : AIRE transcriptional activation functional score at minimum 1?
Reply: condition met

Ask: Evaluate `R8G` : AIRE transcriptional activation functional score at minimum 1?
Reply: condition not met

Ask: Evaluate `R303N` : AIRE transcriptional activation functional score at minimum 1?
Reply: condition met

Ask: Evaluate `Q69C` : AIRE transcriptional activation functional score at minimum 1?
Reply: condition not met

Ask: Evaluate `A58V` : AIRE transcriptional activation functional score at minimum 1?
Reply: condition not met

Ask: Evaluate `K259H` : AIRE transcriptional activation functional score at minimum 1?
Reply: condition not met

Ask: Evaluate `D34F` : AIRE transcriptional activation functional score at minimum 1?
Reply: condition not met

Ask: Evaluate `V256F` : AIRE transcriptional activation functional score at minimum 1?
Reply: condition met
